# study.target: Cytochrome P450 1A2 (Homo sapiens)
# experiment: p450-cyp1a2 (AID 410)
# settings: recombinant CYP1A2, luciferin-ME demethylation, luminescence; series mostly up to 57 µM
Results filed as inconclusive are left out. Active and inactive are the calls of the source. The call rests on the fitted dose curve.
Outcomes: t for active, f for inactive

| structure.smiles | class |
| --- | --- |
| COC(=O)[C@@]1(Cc2ccc(OC)cc2)[C@H]2c3cc(C(=O)N4CCCC4)n(CCn4cc([N+](=O)[O-])nc4C)c3C[C@H]2CN1C(=O)c1ccccc1 | f |
| O=C(/C=C\c1ccc(O)c(O)c1)O[C@H]1C[C@@](O)(C(=O)O)C[C@H](O)[C@@H]1O | f |
| COC(=O)[C@@]1(Cc2ccc(F)cc2)[C@H]2c3cc(C(=O)N(C)C)n(CCc4c[nH]c5ccc(OC)cc45)c3C[C@H]2CN1C(=O)c1ccccc1 | t |
| O[C@@H]1[C@@H]2c3cc4c(cc3CN3CCC(=C[C@@H]1O)[C@H]23)OCO4 | t |
